Test system: UACC-257
Test: NCI tumour cell line growth inhibition, 48 h
Calls of active or inactive are those of the source. No stated cut-off is given here; in the data, active = GI50 up to about 1.1 µM and inactive = higher.
Assignment: determine reported GI50 for the given molecules.

GI50 in this record for CC(=O)Oc1ccc2c(c1)oc1c3ccc(OC(C)=O)cc3n(C)c(=O)c21 : 21.9 µM (inactive)

GI50 in this record for CS(=O)(=O)O[C@H]1CN2C[C@@H](O)[C@@H](O)[C@H]2[C@H]1CO.[B] : > 100 µM (inactive)

GI50 in this record for CC(=O)OC12c3ccccc3C(c3ccccc31)C1C(=O)N(c3ccccc3O)C(=O)C12 (stereo not given) : > 100 µM (inactive)

GI50 in this record for O=c1c2cc(S(=O)(=O)Nc3ccc(Cl)cc3Cl)ccc2ncn1NS(=O)(=O)c1cccc2ccccc12 : 77.6 µM (inactive)

GI50 in this record for C[N+](C)(C)CC(=O)N/N=C/c1oc(-c2c(O)ccc3ccccc23)c(-c2c(O)ccc3ccccc23)c1[N+](=O)[O-] : 18.5 µM (inactive)
